experimental target: human B1R receptor (hB1R) (Homo sapiens, UniProt P46663)
Construct: expressed in transfected cells; host or cells: CHO K1 cells
Sequence (P46663 whole entry): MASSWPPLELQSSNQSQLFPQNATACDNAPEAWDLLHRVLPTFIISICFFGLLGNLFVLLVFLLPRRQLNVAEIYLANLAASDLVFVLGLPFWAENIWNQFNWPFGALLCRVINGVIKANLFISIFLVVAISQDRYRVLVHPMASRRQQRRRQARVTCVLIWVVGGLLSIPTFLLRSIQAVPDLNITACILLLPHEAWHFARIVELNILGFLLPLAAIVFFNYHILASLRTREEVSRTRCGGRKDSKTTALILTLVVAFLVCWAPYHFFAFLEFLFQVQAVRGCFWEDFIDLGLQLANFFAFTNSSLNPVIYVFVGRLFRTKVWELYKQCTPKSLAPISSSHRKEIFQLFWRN
measurement description: Functional investigation on the bradykinin 1 receptor (B1R), FLIPR Ca2+ assay, hB1R cells
Assay type: cell-based
assay setup: test substance 10 μM; CHO K1 cells transfected with human B1R gene; Fluo-4 Ca2+ signal; agonist Lys-Des-Arg9-bradykinin at EC80; % of maximum achievable inhibition; read-out: B1R antagonism, human [10 μM] % inhibition
Structures can show the parent of a compound that is named as a salt.
assay readout: inhibition at 10 µM (%)

The examples below pair each entry with its known result.
O=S(=O)(CCC[C@@H]1CCCN1S(=O)(=O)c1ccc(Cl)cc1Cl)N1CCC(Oc2ccncc2)CC1 | 74
O=S(=O)(CCC[C@@H]1CCCN1S(=O)(=O)c1cccc2c(Cl)cccc12)N1CCC2(CCN(c3ccncc3)CC2)CC1 | 95
CN1CCC(N2CCN(S(=O)(=O)CCC[C@@H]3CCCN3S(=O)(=O)c3ccc(Cl)cc3Cl)CC2)CC1 | 89
COc1cc(C)c(S(=O)(=O)N2C[C@@H](F)C[C@H]2CCCS(=O)(=O)N2CCC(Oc3ccncc3)CC2)c(C)c1 | 95
COc1cc(C)c(S(=O)(=O)N2CCC(CCS(=O)(=O)N3CCC(CCN4CCCC4)CC3)C2)c(C)c1 (stereo not shown) [Example 25, hydrochloride] | 103

A: COc1cc(C)c(S(=O)(=O)N2CCC[C@H]2CCCS(=O)(=O)N2CCC3(CCN(c4ccncc4)CC3)CC2)c(C)c1
B: O=S(=O)(CCC1CCN(S(=O)(=O)c2csc3ccccc23)C1)N1CCC(CCN2CCCC2)CC1 (stereo not shown)
input: Pick one, A or B : lowest reported inhibition at 10 µM. Write the label of whichever entry you select.
output: B

---

experimental target: human B1R receptor (hB1R) (Homo sapiens)
Construct: expressed in transfected cells; host or cells: CHO K1 cells
measurement description: Functional investigation on the bradykinin 1 receptor (B1R), FLIPR Ca2+ assay, hB1R cells
Assay type: cell-based
assay setup: test substance 10 μM; CHO K1 cells transfected with human B1R gene; Fluo-4 Ca2+ signal; agonist Lys-Des-Arg9-bradykinin at EC80; % of maximum achievable inhibition; read-out: B1R antagonism, human [10 μM] % inhibition
Where a name gives a salt, the structure may show the parent alone.
assay readout: inhibition at 10 µM (%)

Consider the following illustrative entries.
COc1cc(C)c(S(=O)(=O)N2CCCCC2CCCS(=O)(=O)N2CCC3(CCN(c4ccncc4)CC3)CC2)c(C)c1 (stereo not shown) [Example 74] | 99
COc1cc(C)c(S(=O)(=O)N2c3ccccc3CC2CCCS(=O)(=O)N2CCC(O)(c3cccnc3)CC2)c(C)c1 (stereo not shown) [Example 44] | 82
O=S(=O)(CCC1CCN(S(=O)(=O)c2cc(Cl)c(Cl)cc2Cl)C1)N1CCC(CCN2CCCC2)CC1 (stereo not shown) [Example 18, hydrochloride] | 65
O=S(=O)(CCC1CCN(S(=O)(=O)c2c(Cl)cc(C(F)(F)F)cc2Cl)CC1)N1CCC(CCN2CCCC2)CC1 [Example 14] | 58
Cc1cccc(Cl)c1S(=O)(=O)N1CCC[C@H]1CCCS(=O)(=O)N1CCC2(CCC(Oc3ccncc3)CC2)CC1 [Example 62] | 84

a: Cc1cc(S(=O)(=O)N2CCC(CCS(=O)(=O)N3CCN(Cc4cccc(C#N)c4)CC3)C2)c(C)cc1Cl (stereo not shown) [Example 43, hydrochloride]
b: Cc1cc(C)c(S(=O)(=O)N2CCCC2CCCCS(=O)(=O)N2CCN(C3CCN(C)CC3)CC2)c(C)c1 (stereo not shown) [Example 42, dihydrochloride]
input: Of the pair a and b , name the member with the lesser recorded inhibition at 10 µM. Give the label of your selection.
output: a
(a: 11%, b: 50%)

---

experimental target: human B1R receptor (hB1R) (Homo sapiens, UniProt P46663)
Construct: expressed in transfected cells; host or cells: CHO K1 cells
measurement description: Functional investigation on the bradykinin 1 receptor (B1R), FLIPR Ca2+ assay, hB1R cells
Type: cell-based
assay setup: test substance 10 μM; CHO K1 cells transfected with human B1R gene; Fluo-4 Ca2+ signal; agonist Lys-Des-Arg9-bradykinin at EC80; % of maximum achievable inhibition; read-out: B1R antagonism, human [10 μM] % inhibition
Counter-ions that a name gives are not always drawn.
assay readout: inhibition at 10 µM (%)

Cc1cc(S(=O)(=O)N2CCC[C@H]2CCCS(=O)(=O)N2CCN(C3CCN(C)CC3)CC2)c(C)cc1Cl [Example 29] | 87
Cc1cc(C)c(S(=O)(=O)N2CCC(CCS(=O)(=O)N3CCN(c4ccncc4)CC3)C2)c(C)c1 (stereo not shown) [Example 20, hydrochloride] | 103

A: O=S(=O)(CCC[C@@H]1CCCN1S(=O)(=O)c1ccc(F)c2ccccc12)N1CCC2(CCN(c3ccncc3)CC2)CC1 [Example 78]
B: COc1cc(C)c(S(=O)(=O)N2CCCC2CCCCS(=O)(=O)N2CCN(C3CCN(C)CC3)CC2)c(C)c1C (stereo not shown) [Example 7]
input: Short answer wanted: higher inhibition at 10 µM, A or B ? Pick one and reply with its label.
output: A

---

experimental target: human B1R receptor (hB1R) (Homo sapiens)
Construct: expressed in transfected cells; host or cells: CHO K1 cells
measurement description: Functional investigation on the bradykinin 1 receptor (B1R), FLIPR Ca2+ assay, hB1R cells
Assay type: cell-based
assay setup: test substance 10 μM; CHO K1 cells transfected with human B1R gene; Fluo-4 Ca2+ signal; agonist Lys-Des-Arg9-bradykinin at EC80; % of maximum achievable inhibition; read-out: B1R antagonism, human [10 μM] % inhibition
Where a name gives a salt, the structure may show the parent alone.
assay readout: inhibition at 10 µM (%)

Worked examples follow.
Cc1cc(C)c(S(=O)(=O)N2CCC(CCS(=O)(=O)N3CCC(CCN4CCCC4)CC3)C2)c(C)c1 (stereo not shown) [Example 1] | 83
O=S(=O)(CCC1CCN(S(=O)(=O)c2ccc(Cl)c(Cl)c2)C1)N1CCN(c2ccncc2)CC1 (stereo not shown) [Example 24, hydrochloride] | 62
O=S(=O)(CCC[C@@H]1CCCN1S(=O)(=O)c1ccccc1C(F)(F)F)N1CCC(Oc2ccncc2)CC1 [Example 48] | 81
COc1cc(C)c(S(=O)(=O)N2CCC[C@H]2CCCS(=O)(=O)N2CCC(Oc3ccncc3)CC2)c(C)c1 [Example 47] | 95
COc1cc(C)c(S(=O)(=O)N2CCC[C@H]2CCCS(=O)(=O)N2[C@@H]3CC[C@H]2C[C@H](Oc2ccncc2)C3)c(C)c1 [Example 54] | 100

A: O=S(=O)(CCC[C@@H]1CCCN1S(=O)(=O)c1ccc(C(F)(F)F)cc1Cl)N1CCC(Oc2ccncc2)CC1 [Example 71]
B: Cc1cc(S(=O)(=O)N2CCC(CCS(=O)(=O)N3CCN(c4ccncc4)CC3)C2)c(C)cc1Cl (stereo not shown) [Example 23]
input: Compare the recorded inhibition at 10 µM of A and B ; state which is larger. Mark your selection by writing its label.
output: B

---

experimental target: human B1R receptor (hB1R) (Homo sapiens, UniProt P46663)
Construct: expressed in transfected cells; host or cells: CHO K1 cells
measurement description: Functional investigation on the bradykinin 1 receptor (B1R), FLIPR Ca2+ assay, hB1R cells
Assay type: cell-based
assay setup: test substance 10 μM; CHO K1 cells transfected with human B1R gene; Fluo-4 Ca2+ signal; agonist Lys-Des-Arg9-bradykinin at EC80; % of maximum achievable inhibition; read-out: B1R antagonism, human [10 μM] % inhibition
Structures can show the parent of a compound that is named as a salt.
assay readout: inhibition at 10 µM (%)

Known inhibition at 10 µM results, listed for orientation:
Cc1cc(F)cc(C)c1S(=O)(=O)N1CCC[C@H]1CCCS(=O)(=O)N1CCC(Oc2ccncc2)CC1 | 89
O=S(=O)(CCC[C@@H]1CCCN1S(=O)(=O)c1cccc2ccccc12)N1CCC2(CCN(c3ccncc3)CC2)CC1 [Example 67, hydrochloride] | 98
O=S(=O)(CCC[C@@H]1CCCN1S(=O)(=O)c1ccccc1C(F)(F)F)N1[C@@H]2CC[C@H]1C[C@H](Oc1ccncc1)C2 | 95
Cc1cc(C)c(S(=O)(=O)N2CCC(CCCS(=O)(=O)N3CCC(CCN4CCCC4)CC3)CC2)c(C)c1 | 52
O=S(=O)(CCC1CCN(S(=O)(=O)c2cccc(Cl)c2Cl)C1)N1CCC(CCN2CCCC2)CC1 (stereo not shown) [Example 17, hydrochloride] | 58

A: CN1CCC(N2CCN(S(=O)(=O)CCCCC3CCCN3S(=O)(=O)c3c(Cl)cc(C(F)(F)F)cc3Cl)CC2)CC1 (stereo not shown)
B: COc1cc(C)c(S(=O)(=O)N2CC(CCS(=O)(=O)N3CCC(CCN4CCCC4)CC3)CO2)c(C)c1C (stereo not shown)
input: A or B : whose inhibition at 10 µM is greater? Which one? Tell me its label.
output: B
(B: 97%, A: 58%)
